Values from patent US11931343B2

- tested target: human CD73 (Homo sapiens)
- test description: Inhibition of Ecto-5′-nucleotidase (CD73) activity in CHO-CD73 cells, phosphate release from AMP
- details: CHO-K1 cells stably transfected with human CD73; 25 μM AMP; 50 minutes, 37° C.; read-out: Potency: CD73 IC50
Each entry below carries its recorded IC50.

- compound: "N#Cc1ccc(Cn2nccc2-c2cnc3c(N)nn(-c4cc5[nH]c(=O)[nH]c5cc4F)c3c2)c(F)c1 [Example 339]"
  IC50: "< 100 nM"
- compound: "Cc1ccc(Cn2nccc2-c2cc(F)c3nnn(-c4ccc5cn[nH]c5c4)c3c2)cc1 [Example 100]"
  IC50: "100 to 1000 nM"
- compound: "N#Cc1ccc(Cn2nccc2-c2cc3c(c(N)nn3-c3ccc4[nH]c(=O)[nH]c4c3)[n+]([O-])c2)cc1 [Example 365]"
  IC50: "> 1000 nM"

# get_value(readout= IC50, system= human CD73 (Homo sapiens)) for N#Cc1cc(F)c(Cn2nccc2-c2cc(Cl)c3nnn(-c4ccc5[nH]c(=O)[nH]c5c4)c3c2)cc1F [Example 272] 100 to 1000 nM

# get_value(readout= IC50, system= human CD73 (Homo sapiens)) for CC(C)(O)C1CN(Cc2cc(C#N)ccc2Cn2nccc2-c2cc(F)c3nnn(-c4ccc5[nH]c(=O)[nH]c5c4)c3c2)C1 [Example 305] 100 to 1000 nM

# get_value(readout= IC50, system= human CD73 (Homo sapiens)) for Cn1nccc1Cn1nccc1-c1cc(F)c2nnn(-c3ccc4[nH]c(=O)[nH]c4c3)c2c1 [Example 249] > 1000 nM

# get_value(readout= IC50, system= human CD73 (Homo sapiens)) for CC(c1ccc(Cl)cn1)n1nccc1-c1cc(Cl)c2nnn(-c3ccc4cn[nH]c4c3)c2c1 (stereo not shown) [Example 374] 100 to 1000 nM

###

Each entry below carries its recorded IC50.
- tested target: human CD73 (Homo sapiens)
- test description: Inhibition of Ecto-5′-nucleotidase (CD73) activity in CHO-CD73 cells, phosphate release from AMP
- details: CHO-K1 cells stably transfected with human CD73; 25 μM AMP; 50 minutes, 37° C.; read-out: Potency: CD73 IC50

- molecule: "CC(c1ccc(Br)cn1)n1nccc1-c1ccc2nnn(-c3ccc4cn[nH]c4c3)c2c1 (centres unmarked)"
  IC50: "100 to 1000 nM"
- molecule: "N#Cc1ccc(Cn2nccc2-c2cc3c(cc2CO)nnn3-c2ccc3cn[nH]c3c2)cc1"
  IC50: "100 to 1000 nM"
- molecule: "Cc1nc(-c2ccnn2Cc2ccc(C#N)cc2)cc2c1nnn2-c1ccc2cn[nH]c2c1"
  IC50: "100 to 1000 nM"
- molecule: "N#Cc1ccc(Cn2nccc2-c2cc(F)c3nnn(-c4ccc5c(c4)NC(=O)C5)c3c2)cc1"
  IC50: "> 1000 nM"
- molecule: "N#Cc1ccc(Cn2nccc2-c2cc(F)c3nnn(-c4ccc(O)cc4)c3c2)cc1"
  IC50: "> 1000 nM"
- molecule: "N#Cc1ccc(Cn2nccc2-c2cc3c(nnn3-c3ccc4cn[nH]c4c3)[nH]c2=O)cc1"
  IC50: "100 to 1000 nM"
- molecule: "C=C(C)c1cc(C#N)ccc1Cn1nccc1-c1cc(F)c2nnn(-c3ccc4[nH]c(=O)[nH]c4c3)c2c1"
  IC50: "100 to 1000 nM"

// switching to the query molecule
# input molecule: CC(c1ccc(Cl)cn1)n1nccc1-c1cc2c(cc1Cl)nnn2-c1ccc2cn[nH]c2c1 (centres unmarked) ; wanted: its IC50 100 to 1000 nM

###

Each entry below carries its recorded IC50.
- tested target: human CD73 (Homo sapiens, UniProt P21589)
- test description: Inhibition of Ecto-5′-nucleotidase (CD73) activity in CHO-CD73 cells, phosphate release from AMP
- details: CHO-K1 cells stably transfected with human CD73; 25 μM AMP; 50 minutes, 37° C.; read-out: Potency: CD73 IC50

Solved cases (3 shown):
- smi: "FC(F)(F)c1cc(-c2ccnn2Cc2ccc(Cl)cc2Cl)cc2c1nnn2-c1ccc2cn[nH]c2c1"
  IC50: "100 to 1000 nM"
- smi: "N#Cc1ccc(Cn2nccc2-c2cnc3c(Cl)nn(-c4ccc5cn[nH]c5c4)c3c2)cc1"
  IC50: "100 to 1000 nM"
- smi: "Cc1ccc(Cn2nccc2-c2cc(F)c3nnn(-c4ccc5cn[nH]c5c4)c3c2)c(Cl)c1"
  IC50: "< 100 nM"

# get_value(readout= IC50, system= human CD73 (Homo sapiens, UniProt P21589)) for N#Cc1ccc(Cn2nccc2-c2cc(Cl)c3nnn(-c4ccc5cn[nH]c5c4)c3c2)c(F)c1 < 100 nM

# get_value(readout= IC50, system= human CD73 (Homo sapiens, UniProt P21589)) for CC(C)(O)c1cc(C#N)ccc1Cn1nccc1-c1cc(F)c2nnn(-c3ccc4[nH]c(=O)[nH]c4c3)c2c1 > 1000 nM

# get_value(readout= IC50, system= human CD73 (Homo sapiens, UniProt P21589)) for CCNc1nn(-c2ccc3cn[nH]c3c2)c2cc(-c3ccnn3Cc3ccc(C#N)cc3)cnc12 > 1000 nM

# get_value(readout= IC50, system= human CD73 (Homo sapiens, UniProt P21589)) for Cc1ccc(Cn2nccc2-c2cc(Cl)c3nnn(-c4ccc5[nH]c(=O)[nH]c5c4)c3c2)c(F)c1F 100 to 1000 nM

###

- tested target: human CD73 (Homo sapiens, UniProt P21589)
- Sequence (P21589 27-549): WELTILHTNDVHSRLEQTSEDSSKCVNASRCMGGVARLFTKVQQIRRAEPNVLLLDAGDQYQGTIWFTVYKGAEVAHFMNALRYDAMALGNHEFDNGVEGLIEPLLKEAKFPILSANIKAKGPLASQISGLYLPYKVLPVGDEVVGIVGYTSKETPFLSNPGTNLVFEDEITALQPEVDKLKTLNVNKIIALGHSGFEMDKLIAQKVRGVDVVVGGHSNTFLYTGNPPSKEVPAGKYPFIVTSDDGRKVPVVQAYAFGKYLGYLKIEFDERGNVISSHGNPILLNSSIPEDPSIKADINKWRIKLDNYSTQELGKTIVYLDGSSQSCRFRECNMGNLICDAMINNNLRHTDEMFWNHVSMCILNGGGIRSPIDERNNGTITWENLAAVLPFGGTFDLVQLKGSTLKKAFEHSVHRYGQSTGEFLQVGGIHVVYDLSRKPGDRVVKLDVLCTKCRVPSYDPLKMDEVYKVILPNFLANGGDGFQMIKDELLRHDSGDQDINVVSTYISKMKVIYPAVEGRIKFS
- test description: Inhibition of Ecto-5′-nucleotidase (CD73) activity in CHO-CD73 cells, phosphate release from AMP
- details: CHO-K1 cells stably transfected with human CD73; 25 μM AMP; 50 minutes, 37° C.; read-out: Potency: CD73 IC50
pIC50: −log10 of the molar value.
Each entry below carries its recorded pIC50.

- compound: "CN(C(=O)Cn1nccc1-c1cc(Cl)c2nnn(-c3ccc4cn[nH]c4c3)c2c1)c1ccccc1 [Example 187]"
  tested target: "human CD73 (Homo sapiens, UniProt P21589)"
  result type: "pIC50"
  value measured: "< 6.00"
- compound: "N#Cc1ccc(Cn2nccc2-c2ccc3nnn(-c4ccc5[nH]c(=O)[nH]c5c4)c3c2)nc1 [Example 204]"
  tested target: "human CD73 (Homo sapiens, UniProt P21589)"
  result type: "pIC50"
  value measured: "6.00 to 7.00"
- compound: "N#Cc1ccc(Cn2nccc2-c2cc(F)c3nnn(-c4ccc5[nH]c(=O)[nH]c5c4)c3c2)c(CN2CCCC2)c1 [Example 278]"
  tested target: "human CD73 (Homo sapiens, UniProt P21589)"
  result type: "pIC50"
  value measured: "< 6.00"

# input compound: O=c1[nH]c2ccc(-n3nnc4cnc(-c5ccnn5Cc5ccc(F)cn5)cc43)cc2[nH]1 [Example 189] ; wanted: its pIC50 6.00 to 7.00

# input compound: N#Cc1ccc(Cn2nccc2-c2cc(Cl)c3nnn(-c4ccc5[nH]c(=O)[nH]c5c4)c3c2)c(F)c1 [Example 228] ; wanted: its pIC50 > 7.00

# input compound: CS(=O)(=O)c1cccc(-n2nccc2-c2cc(Cl)c3nnn(-c4ccc5[nH]c(=O)[nH]c5c4)c3c2)c1 [Example 301] ; wanted: its pIC50 6.00 to 7.00

# input compound: COc1cc(F)ccc1Cn1nccc1-c1cc2c(cn1)nnn2-c1ccc2[nH]c(=O)[nH]c2c1 [Example 237] ; wanted: its pIC50 < 6.00

###

- tested target: human CD73 (Homo sapiens, UniProt P21589)
- Sequence (P21589 27-549): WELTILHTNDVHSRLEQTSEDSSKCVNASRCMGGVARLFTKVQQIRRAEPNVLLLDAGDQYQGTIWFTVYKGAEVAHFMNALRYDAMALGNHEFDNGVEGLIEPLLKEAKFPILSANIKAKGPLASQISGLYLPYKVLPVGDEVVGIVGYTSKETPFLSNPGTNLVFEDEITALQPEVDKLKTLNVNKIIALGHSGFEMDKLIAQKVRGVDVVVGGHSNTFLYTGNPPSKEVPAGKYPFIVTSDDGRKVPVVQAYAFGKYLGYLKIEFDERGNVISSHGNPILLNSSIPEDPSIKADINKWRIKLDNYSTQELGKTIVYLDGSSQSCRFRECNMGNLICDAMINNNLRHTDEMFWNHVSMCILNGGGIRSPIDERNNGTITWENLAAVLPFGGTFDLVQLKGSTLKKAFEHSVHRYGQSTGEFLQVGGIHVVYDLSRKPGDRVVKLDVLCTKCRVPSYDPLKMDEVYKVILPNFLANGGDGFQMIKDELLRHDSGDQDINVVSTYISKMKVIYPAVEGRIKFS
- test description: Inhibition of Ecto-5′-nucleotidase (CD73) activity in CHO-CD73 cells, phosphate release from AMP
- details: CHO-K1 cells stably transfected with human CD73; 25 μM AMP; 50 minutes, 37° C.; read-out: Potency: CD73 IC50
result type: IC50

- smi: "N#Cc1ccc(Cn2nccc2-c2cc(F)c3nnn(-c4cc5[nH]ncc5cc4F)c3c2)cc1"
  IC50: "< 100 nM"
- smi: "Fc1cc(-c2ccnn2-c2ccc3[nH]ncc3c2)cc2c1nnn2-c1ccc2cn[nH]c2c1"
  IC50: "> 1000 nM"
- smi: "O=c1[nH]c2ccc(-n3nnc4c(F)cc(-c5ccnn5Cc5cccc(F)c5Cl)cc43)cc2[nH]1"
  IC50: "100 to 1000 nM"
- smi: "Clc1ccc(Cn2nccc2-c2cnc3cnn(-c4ccc5cn[nH]c5c4)c3c2)nc1"
  IC50: "100 to 1000 nM"
- smi: "O=C(O)c1n[nH]c2cc(-n3nnc4c(Cl)cc(-c5ccnn5Cc5ccc(Cl)cc5Cl)cc43)ccc12"
  IC50: "> 1000 nM"

# input compound: Cc1cc(Cl)ccc1Cn1nccc1-c1cc(F)c2nnn(-c3ccc4cn[nH]c4c3)c2c1 ; wanted: its IC50 < 100 nM
